The values you see were collected from ChEMBL document CHEMBL1156547.

# experiment: Volume of distribution in Sprague-Dawley rat at 2 mg/kg, iv
# Format: ADME, organism-based
# Parameters: dose 2 mg/kg, route intravenous
# condition-summary: in vivo
Some compounds, each annotated with its measured Vd.
Give the value; after it, write the unit.

CCN1C[C@H](C)n2c(c(O)c3c(=O)n(Cc4ccc(F)cc4)ncc32)C1=O    0.2 L/kg

(Q) Consider the compound CCN1CC(C)(C)n2c(c(O)c3c(=O)n(Cc4ccc(F)cc4)ncc32)C1=O and give its measured Vd.
(A) 0.3 L/kg

(Q) Consider the compound CC(C)N1C[C@H](C)n2c(c(O)c3c(=O)n(Cc4ccc(F)c(Cl)c4)ncc32)C1=O and give its measured Vd.
(A) 0.2 L/kg

(Q) Consider the compound CC(C)N1C[C@H](C)n2c(c(O)c3c(=O)n(Cc4ccc(F)cc4)ncc32)C1=O and give its measured Vd.
(A) 0.2 L/kg

(Q) Consider the compound CCN1C[C@H](C)n2c(c(O)c3c(=O)n(Cc4ccc(F)c(Cl)c4)ncc32)C1=O and give its measured Vd.
(A) 0.3 L/kg

(Q) Consider the compound CCN1C[C@H](C)n2c(c(O)c3c(=O)n(Cc4ccc(F)cc4)nc(C)c32)C1=O and give its measured Vd.
(A) 2.6 L/kg
